# TESTED_SYSTEM: LIMK1 (human) (UniProt P53667)
# Sequence (P53667 whole entry, looked up): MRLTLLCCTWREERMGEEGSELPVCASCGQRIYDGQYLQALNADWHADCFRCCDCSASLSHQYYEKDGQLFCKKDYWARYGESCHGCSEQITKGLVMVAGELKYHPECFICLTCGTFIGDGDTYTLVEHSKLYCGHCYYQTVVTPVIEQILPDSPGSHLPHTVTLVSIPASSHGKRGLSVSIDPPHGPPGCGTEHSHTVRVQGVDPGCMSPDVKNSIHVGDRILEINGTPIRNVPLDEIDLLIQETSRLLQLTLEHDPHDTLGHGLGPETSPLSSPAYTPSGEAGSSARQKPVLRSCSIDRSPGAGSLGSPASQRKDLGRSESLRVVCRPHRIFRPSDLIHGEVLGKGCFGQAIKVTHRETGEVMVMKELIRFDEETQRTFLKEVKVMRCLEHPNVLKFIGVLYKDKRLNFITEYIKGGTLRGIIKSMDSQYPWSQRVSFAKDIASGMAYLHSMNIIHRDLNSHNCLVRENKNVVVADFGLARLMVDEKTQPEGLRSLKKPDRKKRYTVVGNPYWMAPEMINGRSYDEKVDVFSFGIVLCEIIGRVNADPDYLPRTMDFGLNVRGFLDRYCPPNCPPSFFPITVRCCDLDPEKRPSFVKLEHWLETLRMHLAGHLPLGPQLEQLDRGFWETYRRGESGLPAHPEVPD
# PROTOCOL_SUMMARY: KINOMEscan competition binding
# ASSAY_CONTEXT: compound 10.0 µM
Field: kinase still bound, per cent of control. Provide a value for each of the compounds that follow.
Give bare numbers, in %.

Worked set:
| COMPOUND | NUMERIC_READOUT |
| --- | --- |
| N#Cc1cc(-c2ccnc(Nc3ccc(-n4cnc(-c5cccnc5)n4)cc3)n2)cc(N2CCOCC2)c1 | 62 |
| N#C/C(=C1/Nc2ccccc2S1)c1ccnc(NCCc2cccnc2)n1 | 78 |
| COc1cc2c(Nc3ccc(NC(=O)c4ccccc4)cc3)ncnc2cc1OCCCN1CCOCC1 | 100 |
| CC1=C(C(=O)Nc2cc3cn[nH]c3cc2F)C(c2ccc(C(F)(F)F)cc2)CC(=O)N1 (stereo not drawn) | 100 |
| CCc1nc(-c2cccc(C)c2)c(-c2ccnc(NC(=O)c3ccccc3)c2)s1 | 90 |

Provide each entry's kinase still bound, per cent of control from the list below.
1. COc1cc(N2CCC(C(N)=O)CC2)ccc1Nc1nc(N)c(Cl)c(Nc2ccccc2S(=O)(=O)C(C)C)n1
2. COc1cc(C)c(Sc2cnc(NC(=O)c3ccc(CNC(C)C(C)C)cc3)s2)cc1C(=O)N1CCN(C(C)=O)CC1 (stereo not drawn)
3. CCOc1cc(N2CCC(O)CC2)ccc1Nc1ncc2c(n1)N(C)c1ccccc1C(=O)N2C

100
100
100

###

# TESTED_SYSTEM: SGK110 (human) (UniProt P0C264)
# Sequence (P0C264 whole entry, looked up): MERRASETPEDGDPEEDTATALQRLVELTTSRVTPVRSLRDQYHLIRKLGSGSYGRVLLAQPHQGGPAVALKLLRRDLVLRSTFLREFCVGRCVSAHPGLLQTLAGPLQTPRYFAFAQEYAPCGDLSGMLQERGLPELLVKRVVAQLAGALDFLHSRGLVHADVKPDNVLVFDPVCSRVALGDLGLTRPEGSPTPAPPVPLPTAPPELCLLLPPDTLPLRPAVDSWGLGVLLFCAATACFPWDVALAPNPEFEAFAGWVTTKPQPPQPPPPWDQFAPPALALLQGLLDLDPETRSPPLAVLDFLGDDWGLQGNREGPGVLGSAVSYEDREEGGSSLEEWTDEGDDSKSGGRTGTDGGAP
# PROTOCOL_SUMMARY: KINOMEscan competition binding
# ASSAY_CONTEXT: compound 10.0 µM
Would you kindly list kinase still bound, per cent of control for each of these molecules?
Phrase the answer as number then unit, nothing more needed.

Before answering, review these 5 worked examples.
| MOLECULE | kinase still bound, per cent of control |
| --- | --- |
| COc1cc(C)c(Sc2cnc(NC(=O)c3ccc(CNC(C)C(C)C)cc3)s2)cc1C(=O)N1CCN(C(C)=O)CC1 (stereo unspecified) | 100% |
| CC1=C(C(=O)Nc2cc3cn[nH]c3cc2F)C(c2ccc(C(F)(F)F)cc2)CC(=O)N1 (stereo unspecified) | 59% |
| O=c1[nH]c2ccccc2n1C1CCN(Cc2ccc(-c3nc4cc5[nH]cnc5cc4nc3-c3ccccc3)cc2)CC1 | 81% |
| CCN1CCN(Cc2ccc(NC(=O)c3ccc(C)c(/C=C/c4cnc5[nH]ccc5c4OC)c3)cc2C(F)(F)F)CC1 | 41% |
| CCN(CCO)CCCOc1ccc2c(Nc3cc(CC(=O)Nc4cccc(F)c4)[nH]n3)ncnc2c1 | 100% |

List the reported kinase still bound, per cent of control of each molecule below.
1. COc1cc(N2CCC(C(N)=O)CC2)ccc1Nc1nc(N)c(Cl)c(Nc2ccccc2S(=O)(=O)C(C)C)n1
2. C=CC(=O)Nc1ccc(C(=O)c2sc(Nc3ccc(N4CCN(C)CC4)cc3OC)nc2N)cc1
3. N#Cc1cc(-c2ccnc(Nc3ccc(-n4cnc(-c5cccnc5)n4)cc3)n2)cc(N2CCOCC2)c1
4. CCc1nc(-c2cccc(C)c2)c(-c2ccnc(NC(=O)c3ccccc3)c2)s1
5. CNC(=O)Nc1ccc(-c2nc(N3CC4CCC(C3)O4)c3cnn(C4CCC5(CC4)OCCO5)c3n2)cc1
6. COc1cc2c(Nc3ccc(NC(=O)c4ccccc4)cc3)ncnc2cc1OCCCN1CCOCC1
7. COc1cc2ncnc(Nc3cccc(Cl)c3)c2cc1OC

1: 100%; 2: 100%; 3: 78%; 4: 100%; 5: 96%; 6: 100%; 7: 65%

Where do these numbers come from? They come from the kinase profiling compilation of Christmann-Franck et al. (2016).
